# Test system: U2OS
# test method notes: Multiplex assay against U2OS
# Format: toxicity, cell-based
# stated conditions: human, 48 h, 1 µM, compound concentration 1 uM, replicate 2
attribute measured: Total Cell Count

> print(dat)
                                   molecule  attribute.measured  numeric.readout
1  O=C(Nc1cc(-c2ccccc2)nn1-c1ccccc1F)c1ccc([N+](=O)[O-])cc1    Total Cell Count              371
2  C=CCN1C[C@H](C(=O)N(CCCN(C)C)C(=O)NCC)C[C@@H]2c3cccc4[nH]cc(c34)C[C@H]21 [CABERGOLINE]    Total Cell Count              221
3  CCn1c(-c2nc3cc(C(=O)N4CCCC(N)C4)ccc3n2C)cc2ccccc21.Cl (centres undefined)    Total Cell Count              145
4  N[C@](CC1c2ccccc2Oc2ccccc21)(C(=O)O)[C@H]1C[C@@H]1C(=O)O    Total Cell Count              190
5  COc1cc2nc(N3CCN(C(=O)COc4c(OC)cccc4C(C)C)CC3)nc(N)c2cc1OC.Cl.Cl    Total Cell Count              225
6  CCc1nn2c(C)cc(C)nc2c1Cc1ccc(-c2nnc(C3CCNCC3)o2)cc1    Total Cell Count              187
7  CN(C)C/C=C/C(=O)Nc1ccc(C(=O)N2CCCC(Nc3ncc(Cl)c(-c4c[nH]c5ccccc45)n3)C2)cc1 (centres undefined)    Total Cell Count              221
8   OCCCNc1cc(-c2ccnc(Nc3cccc(Cl)c3)n2)ccn1    Total Cell Count               99
9  S=C(NCCCc1c[nH]cn1)NCCCN(Cc1ccc(Cl)c(Cl)c1)c1ccc(Br)cn1    Total Cell Count              211

* * *

# System: U2OS
# test method notes: Multiplex assay against U2OS
# Assay type: toxicity, cell-based
# stated conditions: human, 12 h, 1 µM, compound concentration 1 uM, replicate 1
Non-standard residues stand in square brackets, D forms with d. Residues, ends and D or L forms follow the SMILES beside them.
attribute measured: Population Membrane Permeable-Phenotype (%)

compound	numeric readout
COc1cc(Nc2ncc3c(n2)-c2ccc(Cl)cc2C(c2c(F)cccc2OC)=NC3)ccc1C(=O)O	4
CC(C)C[C@@H]1NC(=O)[C@@H](C(C)C)NC(=O)[C@@H]2CCCN2C(=O)[C@@H](CC(=O)O)NC(=O)[C@@H](Cc2c[nH]c3ccccc23)NC1=O [BQ-123] (cyclo(L[dW][dD]P[dV]))	1
COc1cc2nc(N3CCN(C(=O)c4ccco4)CC3)nc(N)c2cc1OC.Cl [PRAZOSIN HYDROCHLORIDE]	4
CN1CCC(C(=O)c2cccc(NC(=O)c3c(F)cc(F)cc3F)n2)CC1	8
O=C(O)CCC/C=C\CC1C(O)CC(O)C1/C=C/C(O)COc1cccc(Cl)c1 (stereo unspecified)	2
S=C(NCCCc1c[nH]cn1)NCCCN(Cc1ccc(Cl)c(Cl)c1)c1ccc(Br)cn1	13

* * *

The entries below are paired with their reported Population Membrane Permeable-Phenotype (%).
# System: HEK-293T
# test method notes: Multiplex assay against HEK293T
# Type: toxicity, cell-based
# stated conditions: human, 48 h, 1 µM, compound concentration 1 uM, replicate 1
attribute measured: Population Membrane Permeable-Phenotype (%)

> print(dat)
                                test.smiles  assay.target  numeric.readout
1  O=C(Nc1cc(-c2ccccc2)nn1-c1ccccc1F)c1ccc([N+](=O)[O-])cc1      HEK-293T                2
2  CN1CCC(C(=O)c2cccc(NC(=O)c3c(F)cc(F)cc3F)n2)CC1      HEK-293T                1
3  CC(C)(O)C(=O)N1CCN(c2ccc(C(F)(F)F)c(C3=C(c4c[nH]c5ccccc45)C(=O)NC3=O)c2)CC1      HEK-293T                0
4  COCCn1c(C)c(C)s/c1=N\C(=O)C1C(C)(C)C1(C)C      HEK-293T                0
5  Cc1sc2c(c1C)C(c1ccc(Cl)cc1)=N[C@H](CC(=O)OC(C)(C)C)c1nnc(C)n1-2      HEK-293T                1

* * *

# Tested on: Fibroblast
# test method notes: Multiplex assay against human fibroblast
# Format: toxicity, cell-based
# stated conditions: 24 h, 1 µM, compound concentration 1 uM, replicate 2
Non-standard residues stand in square brackets, D forms with d. Residues, ends and D or L forms follow the SMILES beside them.
The entries below are paired with their reported Population Apoptotic (%).

compound	Population Apoptotic (%)
Cc1ccc(OCC(O)C(C)NC(C)C)c2c1CCC2.Cl (configuration not stated)	20
OCCCNc1cc(-c2ccnc(Nc3cccc(Cl)c3)n2)ccn1	46
COc1ccc2[nH]c(I)c(CCNC(C)=O)c2c1	57
CN(C)C/C=C/C(=O)Nc1ccc(C(=O)N2CCCC(Nc3ncc(Cl)c(-c4c[nH]c5ccccc45)n3)C2)cc1 (configuration not stated)	37
Cc1sc2c(c1C)C(c1ccc(Cl)cc1)=N[C@H](CC(=O)OC(C)(C)C)c1nnc(C)n1-2	46
CCC(=O)OCC(=O)[C@@]1(OC(=O)CC)[C@@H](C)C[C@H]2[C@@H]3CCC4=CC(=O)C=C[C@]4(C)[C@@]3(Cl)[C@@H](O)C[C@@]21C [BECLOMETHASONE DIPROPIONATE]	47
CC(C)C[C@@H]1NC(=O)[C@@H](C(C)C)NC(=O)[C@@H]2CCCN2C(=O)[C@@H](CC(=O)O)NC(=O)[C@@H](Cc2c[nH]c3ccccc23)NC1=O [BQ-123] (cyclo(L[dW][dD]P[dV]))	24

* * *

# Tested on: U2OS
# test method notes: Multiplex assay against U2OS
# Format: toxicity, cell-based
# stated conditions: human, 12 h, 10 µM, compound concentration 10 uM, replicate 2
attribute measured: Population Pyknosed Nuclei (%)

> print(dat)
                                   compound  numeric.readout
1          COc1ccc2[nH]c(I)c(CCNC(C)=O)c2c1                3
2  CCCCCCNC(=O)Nc1ccc(S(=O)(=O)Nc2ccc(CCNC[C@H](O)COc3ccc(O)cc3)cc2)cc1                8
3  CN1CCN(c2ccc(Nc3c4ccccc4nc4ccccc34)cc2)CC1.Cl.Cl.O                6
4  COc1cc2nc(N3CCN(C(=O)c4ccco4)CC3)nc(N)c2cc1OC.Cl [PRAZOSIN HYDROCHLORIDE]                9
5   OCCCNc1cc(-c2ccnc(Nc3cccc(Cl)c3)n2)ccn1               11

* * *

The entries below are paired with their reported Population Hoechst High Intensity Objects (%).
# Tested on: HEK-293T
# test method notes: Multiplex assay against HEK293T
# Assay type: toxicity, cell-based
# stated conditions: human, 12 h, 10 µM, compound concentration 10 uM, replicate 1
attribute measured: Population Hoechst High Intensity Objects (%)

> print(dat)
                                   compound  readout.units  numeric.readout
1  Cc1c(Cc2ccc3ccccc3n2)c2cc(F)ccc2n1CC(=O)O [TIMAPIPRANT]              %                6
2  CSc1nc(NC2CCCC2)c([N+](=O)[O-])c(NC2CCCC2)n1 [GS-39783]              %                6
3  C=CCN1C[C@H](C(=O)N(CCCN(C)C)C(=O)NCC)C[C@@H]2c3cccc4[nH]cc(c34)C[C@H]21 [CABERGOLINE]              %               12
4  Nc1nc(CC(=O)Nc2ccc(CCNC[C@H](O)c3ccccc3)cc2)cs1 [MIRABEGRON]              %                7
5  Cl.Cl.OCCOCCN1CCN(C(c2ccccc2)c2ccc(Cl)cc2)CC1 (centres undefined) [HYDROXYZINE HYDROCHLORIDE]              %               11
6   OCCCNc1cc(-c2ccnc(Nc3cccc(Cl)c3)n2)ccn1              %               30
7  Cc1cc(O)c(-c2ccc([C@@H](C)CN(C)C)cc2)c2c1[nH]c(=O)c1sccc12              %               41
8  CN1CCC(C(=O)c2cccc(NC(=O)c3c(F)cc(F)cc3F)n2)CC1              %                8
9  CC(C)(C)c1ccc(CSc2cnn(C(C)(C)C)c(=O)c2Cl)cc1 [PYRIDABEN]              %               11

Ref: ChEMBL document CHEMBL5058577
